# reported KIDNEY_TOTAL; entries follow
# Organism: Rattus norvegicus
# ASSAY DETAILS: Open TG-GATES - Regimen: Daily Repeat
# Type: toxicity, organism-based, Sprague-Dawley
# Design: regimen Daily Repeat, gender Male, age 6 weeks
# EXPERIMENTAL CONTEXT: in vivo, po, 1000 mg/kg, […], tissue Kidney, route gavage, dose level High, time 28 day
Please reply with the bare figure in g and do not write the unit itself.

COC(=O)C1=C(C)NC(C)=C(C(=O)OC)C1c1ccccc1[N+](=O)[O-] 2.7
Cc1nnc2n1-c1ccc(Cl)cc1C(c1ccccc1Cl)=NC2 2.8
CNC(=C[N+](=O)[O-])NCCSCc1ccc(CN(C)C)o1 2.8
O=C(OC[C@H]1O[C@@H](OC(=O)c2cc(O)c(O)c(OC(=O)c3cc(O)c(O)c(O)c3)c2)[C@H](OC(=O)c2cc(O)c(O)c(OC(=O)c3cc(O)c(O)c(O)c3)c2)[C@@H](OC(=O)c2cc(O)c(O)c(OC(=O)c3cc(O)c(O)c(O)c3)c2)[C@@H]1OC(=O)c1cc(O)c(O)c(OC(=O)c2cc(O)c(O)c(O)c2)c1)c1cc(O)c(O)c(OC(=O)c2cc(O)c(O)c(O)c2)c1 2.8
CN/C(=N/CCSCc1nc[nH]c1C)NC#N 2.8

Per the record, `CCOc1ccc(NC(C)=O)cc1` has KIDNEY_TOTAL of 3

====

# Species on record: Rattus norvegicus
# ASSAY DETAILS: Open TG-GATES - Regimen: Daily Repeat
# Format: toxicity, organism-based, Sprague-Dawley
# Parameters: regimen Daily Repeat, gender Male, age 6 weeks
# EXPERIMENTAL CONTEXT: in vivo, po, 300 mg/kg, […], tissue Plasma, route gavage, dose level Middle, time 14 day
READOUT KIND: Na

Please review the entries below; each comes with its answer.
O=C(OC[C@H]1O[C@@H](OC(=O)c2cc(O)c(O)c(OC(=O)c3cc(O)c(O)c(O)c3)c2)[C@H](OC(=O)c2cc(O)c(O)c(OC(=O)c3cc(O)c(O)c(O)c3)c2)[C@@H](OC(=O)c2cc(O)c(O)c(OC(=O)c3cc(O)c(O)c(O)c3)c2)[C@@H]1OC(=O)c1cc(O)c(O)c(OC(=O)c2cc(O)c(O)c(O)c2)c1)c1cc(O)c(O)c(OC(=O)c2cc(O)c(O)c(O)c2)c1 139.8 meq/L
CNC(=C[N+](=O)[O-])NCCSCc1ccc(CN(C)C)o1 142.2 meq/L
CCOc1ccc(NC(C)=O)cc1 144.2 meq/L
COC(=O)C1=C(C)NC(C)=C(C(=O)OC)C1c1ccccc1[N+](=O)[O-] 143.8 meq/L
CN/C(=N/CCSCc1nc[nH]c1C)NC#N 140.6 meq/L

Now for another entry.
Per the record, `Cc1nnc2n1-c1ccc(Cl)cc1C(c1ccccc1Cl)=NC2` has Na of 142.8 meq/L

====

# Organism: Rattus norvegicus
# ASSAY DETAILS: Open TG-GATES - Regimen: Single
# Assay type: toxicity, organism-based, Sprague-Dawley
# Set-up: regimen Single, gender Male, age 6 weeks
# EXPERIMENTAL CONTEXT: in vivo, po, 0 mg/kg, 3 h, tissue Blood, route gavage, dose level Control
READOUT KIND: Eos (%)
Please reply with the bare figure in % and do not write the unit itself.

Please review the entries below; each comes with its answer.
COMPOUND	Eos / %
CN1C(=O)CCS(=O)(=O)C1c1ccc(Cl)cc1 (centres undefined)	0.8
CCCc1cc(=O)[nH]c(=S)[nH]1	1

Per the record, `CC(C)NNC(=O)c1ccncc1` has Eos of 0.6

Per the record, NC1=NC(=O)C(c2ccccc2)O1 (centres undefined) has Eos of 0.8

Per the record, `Nc1c2c(nc3ccccc13)CCCC2` has Eos of 0.8
